// values below are AC50; system is Gamma-aminobutyric acid receptor subunit alpha-1 (Rattus norvegicus, UniProt P62813); note: assay procedure not described here
Sequence (P62813 whole entry): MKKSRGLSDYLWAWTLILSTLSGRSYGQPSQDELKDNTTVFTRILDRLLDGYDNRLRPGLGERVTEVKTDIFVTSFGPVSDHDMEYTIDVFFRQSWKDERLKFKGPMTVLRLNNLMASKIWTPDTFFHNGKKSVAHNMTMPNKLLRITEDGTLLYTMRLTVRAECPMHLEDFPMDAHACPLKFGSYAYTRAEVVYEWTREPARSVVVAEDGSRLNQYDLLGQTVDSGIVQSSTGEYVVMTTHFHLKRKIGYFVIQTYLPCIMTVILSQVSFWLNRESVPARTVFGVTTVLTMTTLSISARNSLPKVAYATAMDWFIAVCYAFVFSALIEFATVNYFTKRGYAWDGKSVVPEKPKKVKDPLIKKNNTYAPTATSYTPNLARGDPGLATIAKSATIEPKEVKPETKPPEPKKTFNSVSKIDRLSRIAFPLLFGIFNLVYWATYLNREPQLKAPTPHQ
metric_name: AC50

* CN1C(=O)CC(C)(c2ccccc2)C1=O (stereo not drawn) [METHSUXIMIDE] | > 10 µM
* CCOC(=O)[C@H](CCc1ccccc1)N[C@@H](C)C(=O)N1CCC[C@H]1C(=O)O | > 10 µM
* O=C(OCCN1CCOCC1)c1cccnc1Nc1cccc(C(F)(F)F)c1 [MORNIFLUMATE] | > 30 µM

====

Molecular target: Beta-1 adrenergic receptor (Homo sapiens, UniProt P08588); note: assay procedure not described here
Sequence (P08588 whole entry): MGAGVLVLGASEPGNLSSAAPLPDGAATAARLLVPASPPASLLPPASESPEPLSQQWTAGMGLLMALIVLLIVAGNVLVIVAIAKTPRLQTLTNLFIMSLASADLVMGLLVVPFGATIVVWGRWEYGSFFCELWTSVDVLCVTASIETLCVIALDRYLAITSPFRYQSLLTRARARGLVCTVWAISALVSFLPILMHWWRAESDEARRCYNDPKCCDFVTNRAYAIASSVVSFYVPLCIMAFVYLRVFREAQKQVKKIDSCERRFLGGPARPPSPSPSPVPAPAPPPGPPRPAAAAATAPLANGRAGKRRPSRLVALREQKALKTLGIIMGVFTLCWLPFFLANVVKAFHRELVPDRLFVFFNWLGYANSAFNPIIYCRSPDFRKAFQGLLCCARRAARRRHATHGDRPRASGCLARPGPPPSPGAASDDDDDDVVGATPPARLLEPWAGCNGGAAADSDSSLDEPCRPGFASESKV
Format: functional
metric_name: AC50

* O=C(O)c1cc(-c2ccc(F)cc2F)ccc1O [DIFLUNISAL] | > 10 µM
* CCCC(=O)N1CCCN(c2nc(N)c3cc(OC)c(OC)cc3n2)CC1 [BUNAZOSIN] | > 30 µM
* CC(C)C(=O)OCC(=O)[C@@]12O[C@H](C3CCCCC3)O[C@@H]1C[C@H]1[C@@H]3CCC4=CC(=O)C=C[C@]4(C)[C@H]3[C@@H](O)C[C@@]12C [CICLESONIDE] | > 10 µM
* CCOc1cc(N)c([N+](=O)[O-])cc1C(=O)NC1CCN(CC2CC=CCC2)CC1 (centres undefined) [CINITAPRIDE] | > 30 µM
* COc1ccc2c(c1)c(CC(=O)OCC(=O)O)c(C)n2C(=O)c1ccc(Cl)cc1 [ACEMETACIN] | > 30 µM
* NC(N)=Nc1nc(CSCCC(N)=NS(N)(=O)=O)cs1 [FAMOTIDINE] | > 10 µM
* CO/N=C(\C(=O)N[C@@H]1C(=O)N2C(C(=O)[O-])=C(C[N+]3(C)CCCC3)CS[C@H]12)c1csc(N)n1 | > 300 µM
* CC(C)(C(=O)c1cccnc1)c1cccnc1 [METYRAPONE] | > 10 µM
* [H]/N=C(/N)c1ccc(NCc2nc3cc(C(=O)N(CCC(=O)O)c4ccccn4)ccc3n2C)cc1 [DABIGATRAN] | > 30 µM
* COC(=O)[C@H]1[C@@H](OC(=O)c2ccccc2)C[C@@H]2CC[C@H]1N2C [COCAINE] | > 30 µM
* COc1c(C)c2c(c(O)c1C/C=C(\C)CCC(=O)OCCN1CCOCC1)C(=O)OC2 [MYCOPHENOLATE MOFETIL] | > 30 µM
* O=C(C[S+]([O-])C(c1ccccc1)c1ccccc1)NO (centres undefined) | > 30 µM
* CC(=O)N(CC(O)CO)c1c(I)c(C(=O)NCC(O)CO)c(I)c(C(=O)NCC(O)CO)c1I (centres undefined) [IOHEXOL] | > 30 µM
* CCc1ccc(CCOc2ccc(CC3SC(=O)NC3=O)cc2)nc1 (centres undefined) [PIOGLITAZONE] | > 10 µM
* C=C1CC[C@@]2(O)[C@H]3Cc4ccc(O)c5c4[C@@]2(CCN3CC2CC2)[C@H]1O5 | > 30 µM
* O=C(CCCCCCC(=O)Nc1ccccc1)NO [VORINOSTAT] | > 30 µM
* Cc1c(Cl)cccc1Nc1ccccc1C(=O)O [TOLFENAMIC ACID] | > 30 µM
* CN[C@@H](C)[C@H](O)c1ccccc1 [EPHEDRINE] | > 10 µM
* NC(CO)C(=O)NNCc1ccc(O)c(O)c1O (centres undefined) [BENSERAZIDE] | > 10 µM
* COc1ccc2c(c1)C(=O)N(CCc1ccc(S(=O)(=O)NC(=O)NC3CCCCC3)cc1)C(=O)C2(C)C [GLIQUIDONE] | > 30 µM
* CN(C)[C@@H]1C(O)=C(C(N)=O)C(=O)[C@@]2(O)C(O)=C3C(=O)c4c(O)ccc(Cl)c4[C@@H](O)[C@H]3C[C@@H]12 [DEMECLOCYCLINE] | > 10 µM
* NS(=O)(=O)c1cc2c(cc1Cl)NCNS2(=O)=O [HYDROCHLOROTHIAZIDE] | > 10 µM
* NC(=O)c1cnccn1 [PYRAZINAMIDE] | > 30 µM
* CC(=O)O[C@]1(C(C)=O)CC[C@H]2[C@@H]3C[C@H](C)C4=CC(=O)CC[C@]4(C)[C@H]3CC[C@@]21C [MEDROXYPROGESTERONE ACETATE] | > 30 µM
